test: Serum pharmacokinetics of CDPs after oral administration of DHG (targeted LC-MS, noncompartmental analysis); conditions: serum, mice, oral DHG
Measurement Label: C max

Q: Report C max for O=C1NCC(=O)N2CC(O)CC12 (stereo not shown) please.
Ans: 684 ng/mL

====

assay: FBMN analysis of short peptides in small intestine contents and serum after oral DHG; details: small intestine contents, 30 min after oral DHG, C57 mice; FBMN feature intensity, peptides smaller than 690 Da
Square brackets hold non-standard residues; d marks the D form. Peptide text beside a SMILES is read from it. pGlu = O=C1CC[CH](C(=O)O)N1
Measurement Label: Peptide signal (feature intensity) in the small intestine, 30 min
Reply briefly: the number, and no unit.

Q: Report Peptide signal (feature intensity) in the small intestine, 30 min for N[C@@H](CC(=O)O)C(=O)N1CCC[C@H]1C(=O)O [Asp-Pro] (H-Asp-Pro-OH) please.
Ans: 0.00E+00

Q: Report Peptide signal (feature intensity) in the small intestine, 30 min for CC(C)C[C@H](NC(=O)[C@@H](N)CC(=O)O)C(=O)O [Asp-Leu] (H-Asp-Leu-OH) please.
Ans: 5.68E+06

Q: Report Peptide signal (feature intensity) in the small intestine, 30 min for O=C1CCC(C(=O)NC(Cc2ccc(O)cc2)C(=O)O)N1 (stereo not shown) [PyroGlu-Tyr] ([pGlu]-Tyr-OH; configuration not given here) please.
Ans: 0.00E+00

Q: Report Peptide signal (feature intensity) in the small intestine, 30 min for CC(C)C[C@H](N)C(=O)N[C@@H](CCC(=O)O)C(=O)O [Leu-Glu] (H-Leu-Glu-OH) please.
Ans: 7.88E+06

====

assay: FBMN analysis of short peptides in small intestine contents and serum after oral DHG; details: small intestine contents, 30 min after oral DHG, C57 mice; FBMN feature intensity, peptides smaller than 690 Da
Peptide text beside a SMILES is read from it.
Measurement Label: Peptide signal (feature intensity) in the small intestine, 30 min
Reply briefly: the number, and no unit.

Q: Report Peptide signal (feature intensity) in the small intestine, 30 min for N[C@@H](CO)C(=O)N[C@@H](Cc1ccccc1)C(=O)O please.
Ans: 0.00E+00

Q: Report Peptide signal (feature intensity) in the small intestine, 30 min for CC[C@H](C)[C@H](N)C(=O)N[C@@H](CC(N)=O)C(=O)O [Ile-Asn] (H-Ile-Asn-OH) please.
Ans: 7.93E+06

Q: Report Peptide signal (feature intensity) in the small intestine, 30 min for CC(C)C[C@H](N)C(=O)N[C@@H](CCC(=O)O)C(=O)N[C@@H](CCCCN)C(=O)O [Leu-Glu-Lys] (H-Leu-Glu-Lys-OH) please.
Ans: 0.00E+00

Q: Report Peptide signal (feature intensity) in the small intestine, 30 min for CC(C)CC(NC(=O)C1CCCN1)C(=O)O (stereo not drawn) [Pro-Leu] (H-Pro-Leu-OH; configuration not given here) please.
Ans: 5.47E+07

Q: Report Peptide signal (feature intensity) in the small intestine, 30 min for CSCC[C@H](NC(=O)CN)C(=O)O please.
Ans: 2.08E+06

Q: Report Peptide signal (feature intensity) in the small intestine, 30 min for NC(=O)C[C@H](N)C(=O)N[C@@H](Cc1ccccc1)C(=O)O [Asn-Phe] (H-Asn-Phe-OH) please.
Ans: 2.16E+06

Q: Report Peptide signal (feature intensity) in the small intestine, 30 min for CC[C@H](C)[C@H](N)C(=O)N[C@@H](Cc1ccc(O)cc1)C(=O)O [Ile-Tyr] (H-Ile-Tyr-OH) please.
Ans: 4.20E+05
